Assay: Quantitative high throughput screen for delayed death inhibitors of the malarial parasite plastid: Hit Validation with 3D7 at 48 hr using Flow Cytometry
Conditions: P. falciparum 3D7 growth, flow cytometry SYBR/MitoTracker
Records with an inconclusive call do not appear. The source made the active and inactive calls. Calls come from the whole dose curve; as a rule, active = well fitted curve in the direction sought with a large enough effect; inconclusive = small, poorly fitted or top-dose-only effect; inactive = flat fitted curve, though single readings scatter.
Return exactly one item of active, inactive

The following molecules have reported results that may help.
molecule: CCCCN(CCCNC(=O)C1CCN(C(=O)c2cc3sccc3n2C)CC1)Cc1ccccc1
group.label: active

molecule: CC(=O)NC[C@@H]1CN(c2ccc(N3CCOCC3)c(F)c2)C(=O)O1
group.label: inactive

molecule: Clc1ccc(-c2c[n+](Cc3ccc(Cl)cc3Cl)c3n2CCCCC3)cc1
group.label: active

Qu. Can you look up the reported call for COc1ccccc1N1CCN(CCC(=O)Nc2ccc(F)cc2)CC1 for me?
Ans. active

Qu. Can you look up the reported call for CCCCOc1ccc(N2C(N)=NC(N)=NC23CCCCC3)cc1 for me?
Ans. active

Qu. Can you look up the reported call for CCOc1ccc(NC(=O)C[n+]2ccc(N(C)C)cc2)cc1 for me?
Ans. active

Qu. Can you look up the reported call for O=C(CNC(=O)C1CCCCC1)OC(C(=O)c1ccccc1)c1ccccc1 (stereo not given) for me?
Ans. inactive

Qu. Can you look up the reported call for CCOc1ccc(S(=O)(=O)Nc2cc(S(=O)(=O)N(CC)CC)ccc2N2CCCC2)cc1 for me?
Ans. active

Qu. Can you look up the reported call for Cc1ccc(S(=O)(=O)Nc2ccc(C(=O)Nc3ccncc3)cc2)cc1 for me?
Ans. active

Qu. Can you look up the reported call for CCOC(=O)c1ccc2c(c1)n(CC)c(/C=C/N(C)c1ccccc1)[n+]2CC for me?
Ans. active

###

Assay: Quantitative high throughput screen for delayed death inhibitors of the malarial parasite plastid: Hit Validation with 3D7 at 48 hr using Flow Cytometry
Conditions: P. falciparum 3D7 growth, flow cytometry SYBR/MitoTracker
Records with an inconclusive call do not appear. The source made the active and inactive calls. The call rests on the fitted dose curve; in most records, active means well fitted curve in the direction sought with a large enough effect; inconclusive means small, poorly fitted or top-dose-only effect; inactive means flat fitted curve, though single readings scatter.
Return exactly one item of active, inactive

The following molecules have reported results that may help.
molecule: c1csc(CNc2ncnc3nc[nH]c23)c1
group.label: inactive

molecule: CCCc1c(CC)c(=N)c2ccccc2n1C
group.label: active

molecule: COc1ccc2cc3cc(C(=O)Nc4ccc5c(c4)OCO5)oc3nc2c1
group.label: active

Continue with the next molecule.
Qu. Can you look up the reported call for CO[C@@H]1[C@@H](OC2OC(C)C(OC3CC(C)(O)C(OC(=O)CC(C)C)C(C)O3)C(N(C)C)C2O)[C@@H](CC=O)C[C@@H](C)C(=O)/C=C\C2O[C@H]2C[C@@H](C)OC(=O)C[C@H]1OC(C)=O (some centres undefined) for me?
Ans. active
